Source of measurements: PubChem BioAssay (EPA / NIEHS)

# EXPERIMENT_DESCRIPTION: CPHEA_Stoker_NIS_Cytotoxicity: Cytotoxicity Assessment for CPHEA's Radioactive Iodide Uptake (RAIU) Assay for Sodium/Iodide Symporter (NIS) Inhibition, Stoker and Laws Labs (AID 2283897)
The source made the active and inactive calls. How the source made its calls: active means hit-call score of the fitted dose curve at least 0.9, where 1 is the maximum; inconclusive means response in the unintended direction; inactive means score below 0.9.
Tick one outcome: active, inactive

State the result this test recorded for CCCCCCCCCCCCCC[P+](CCCC)(CCCC)CCCC .
active

State the result this test recorded for COCCOCCC[Si](C)(O[Si](C)(C)C)O[Si](C)(C)C .
inactive

State the result this test recorded for CCc1cc(Cc2cc(CC)c(N)c(CC)c2)cc(CC)c1N .
inactive

State the result this test recorded for O=C(c1ccccc1)c1ccc(O)cc1O .
inactive

State the result this test recorded for CCN=c1cc2oc3cc(NCC)c(C)cc3c(-c3ccccc3C(=O)OCC)c-2cc1C .
active

State the result this test recorded for CCCCCCCCn1sc(Cl)c(Cl)c1=O .
inactive

====

# EXPERIMENT_DESCRIPTION: ATG_VDRE_CIS: Attagene CIS-FACTORIAL HepG2 Assay for human Vitamin D Receptor Element (VDRE) (AID 2282968)
# CONDITION_DETAILS: HepG2 VDRE cis-reporter transcription, actives raise or lower the signal
Active and inactive are the calls of the source. How the source made its calls: active means hit-call score of the fitted dose curve at least 0.9, where 1 is the maximum; inactive means score below 0.9.
Tick one outcome: YES (active), NO (inactive)

State the result this test recorded for CSc1ccc(Cl)cc1 .
NO

State the result this test recorded for Cc1ccc2c(c1)OCC(=O)CO2 .
NO

State the result this test recorded for FC(F)(F)C(F)(F)C(F)(F)C(F)(F)C(F)(F)C(F)(F)C(F)(F)CCI .
NO

State the result this test recorded for O=C(O)C(F)(F)C(F)(F)C(F)(F)C(=O)O .
NO

State the result this test recorded for Brc1nc2ccccc2s1 .
NO

State the result this test recorded for Cc1cccc(C)n1 .
NO

State the result this test recorded for N#CCCOCCC#N .
NO

State the result this test recorded for O=C1OC(=O)c2ccc3c4c(ccc1c24)C(=O)OC3=O .
NO

State the result this test recorded for CC1CCCCC1 .
NO

State the result this test recorded for OCCCCC(F)(F)C(F)(F)C(F)(F)C(F)(F)F .
NO

State the result this test recorded for CCc1ccc(C)nc1 .
NO

State the result this test recorded for C=CC(=O)OCC(F)(F)C(F)(F)C(F)(F)COC(=O)C=C .
YES

State the result this test recorded for CC(C)Nc1ccc(NC(C)C)c2c1C(=O)c1ccccc1C2=O .
YES

State the result this test recorded for CCCCCCCCCCCC(=O)Cl .
NO

====

# TARGET_OF_ASSAY: Estrogen receptor beta (Homo sapiens) (UniProt Q92731)
# Sequence (Q92731 whole entry, looked up): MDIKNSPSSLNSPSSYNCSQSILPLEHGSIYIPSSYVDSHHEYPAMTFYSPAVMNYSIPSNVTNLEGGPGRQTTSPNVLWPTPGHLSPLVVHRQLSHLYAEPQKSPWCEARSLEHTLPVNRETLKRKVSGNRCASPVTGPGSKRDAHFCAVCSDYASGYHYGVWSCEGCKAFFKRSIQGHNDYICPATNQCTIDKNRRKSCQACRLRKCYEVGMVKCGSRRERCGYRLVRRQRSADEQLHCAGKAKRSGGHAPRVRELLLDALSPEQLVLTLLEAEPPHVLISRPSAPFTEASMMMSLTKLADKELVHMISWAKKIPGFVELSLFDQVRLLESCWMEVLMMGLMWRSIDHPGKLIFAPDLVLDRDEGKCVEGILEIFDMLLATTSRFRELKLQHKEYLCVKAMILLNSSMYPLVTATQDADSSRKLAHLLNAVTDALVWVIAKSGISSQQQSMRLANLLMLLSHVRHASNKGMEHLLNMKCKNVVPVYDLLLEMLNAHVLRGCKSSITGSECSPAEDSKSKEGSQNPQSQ
# EXPERIMENT_DESCRIPTION: OT_ER_ERbERb_0480: Odyssey Thera (OT) 8-hour HEK293T Protein-Complementation Assay for Estrogen Receptor-beta/-beta Homodimer (AID 2283357);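 further: active means signal gain over DMSO baseline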
Inconclusive results are not listed. Activity calls are given as the source filed them. Rule for the calls: active = hit-call score of the fitted dose curve at least 0.9, where 1 is the maximum; inconclusive = response in the unintended direction; inactive = score below 0.9.
Tick one outcome: true = active, false = inactive

State the result this test recorded for CCCCCCCCCc1ccc(OCCO)cc1 .
true

State the result this test recorded for CCOC(OCC)OCC .
false

State the result this test recorded for CC(C)(C)c1cc(CCC(=O)OCC(COC(=O)CCc2cc(C(C)(C)C)c(O)c(C(C)(C)C)c2)(COC(=O)CCc2cc(C(C)(C)C)c(O)c(C(C)(C)C)c2)COC(=O)CCc2cc(C(C)(C)C)c(O)c(C(C)(C)C)c2)cc(C(C)(C)C)c1O .
false

State the result this test recorded for CCCCCCCCCCCCCC[P+](CCCC)(CCCC)CCCC .
false

State the result this test recorded for CCN=C1C=CC(=C(c2ccc(N(CC)CC)cc2)c2ccc(N(CC)CC)cc2)c2ccccc21 .
false
